system under test: human CB1 receptor (Homo sapiens)
Construct: expressed in transfected cells; host or cells: SK-N-MC cells, stably transfected with pcDNA3 CB-1 (human); semi-purified membrane pellet
Sequence (P21554 whole entry): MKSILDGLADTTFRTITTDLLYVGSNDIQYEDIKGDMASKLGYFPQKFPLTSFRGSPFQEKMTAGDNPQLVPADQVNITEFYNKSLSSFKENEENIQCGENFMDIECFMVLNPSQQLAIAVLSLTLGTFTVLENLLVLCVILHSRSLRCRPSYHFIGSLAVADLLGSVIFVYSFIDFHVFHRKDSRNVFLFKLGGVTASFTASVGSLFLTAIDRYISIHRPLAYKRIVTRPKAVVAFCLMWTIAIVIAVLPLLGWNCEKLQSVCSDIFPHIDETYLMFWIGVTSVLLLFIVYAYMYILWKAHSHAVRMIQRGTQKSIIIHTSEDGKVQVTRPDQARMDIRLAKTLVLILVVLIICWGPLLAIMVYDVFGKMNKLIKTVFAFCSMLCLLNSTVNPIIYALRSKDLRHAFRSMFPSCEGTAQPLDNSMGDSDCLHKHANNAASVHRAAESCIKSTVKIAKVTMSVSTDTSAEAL
protocol description: Cannabinoid CB1 receptor binding assay ([3H]-CP-55,940 displacement, SK-N-MC cell membranes)
run parameters: from percent inhibition studies at various test concentrations, calculated by linear regression; radioligand CP-55,940 0.2 nM; read-out: Cannabinoid CB1 Receptor Binding, IC50 binding value
readout name: IC50 (nM)
Numeric answer only, unit nM assumed.

Inquiry: Requested read-out: IC50. Entry: Cc1ccc(-c2c(C)c(C(=O)N[C@@H](C)c3ccccc3)nn2-c2ccc(Cl)cc2Cl)o1
Reply text: 140

====

system under test: human CB2 receptor (Homo sapiens)
Construct: expressed in transfected cells; host or cells: SK-N-MC cells, stably transfected with pcDNA3 CB-2 (human); semi-purified membrane pellet
protocol description: Cannabinoid CB2 receptor binding assay ([3H]-CP-55,940 displacement, SK-N-MC cell membranes)
run parameters: 1.5 h; test concentration of 0.2 μM; radioligand CP-55,940 0.2 nM; read-out: Cannabinoid CB2 Receptor Binding, percent inhibition
Below, each of the molecules is paired with its reported inhibition at 0.2 µM value.

molecular string	value reported
C[C@H](NC(=O)c1nn(-c2ccc(Cl)cc2Cl)c(-c2cccs2)c1C#N)c1ccccc1	24%

Inquiry: GET /values?readout=inhibition at 0.2 µM&item= Cc1c(C(=O)N[C@@H](C)c2ccccn2)nn(-c2ccc(Cl)cc2Cl)c1-c1ccc(F)s1
Reply text: 34%

Inquiry: Try this molecule too: Cc1c(C(=O)N[C@@H](C)c2ccccc2)nn(-c2ccc(Cl)cc2Cl)c1-c1ccc(F)s1
Reply text: 39%

Inquiry: Okay, and CCc1c(C(=O)N[C@H](C)c2ccccc2)nn(-c2ccc(Cl)cc2Cl)c1-c1ccc(Br)s1 ?
Reply text: 52%

Inquiry: Let us now turn to C[C@@H](NC(=O)c1nn(-c2ccc(Cl)cc2Cl)c(-c2cccs2)c1C#N)c1ccccn1
Reply text: 14%

Inquiry: And the next one, Cc1c(C(=O)N[C@H](C)c2ccccc2)nn(-c2ccc(Cl)cc2Cl)c1-c1ccc(Cl)s1 ?
Reply text: 40%

====

system under test: human CB2 receptor (Homo sapiens, UniProt P34972)
Construct: expressed in transfected cells; host or cells: SK-N-MC cells, stably transfected with pcDNA3 CB-2 (human); semi-purified membrane pellet
Sequence (P34972 whole entry): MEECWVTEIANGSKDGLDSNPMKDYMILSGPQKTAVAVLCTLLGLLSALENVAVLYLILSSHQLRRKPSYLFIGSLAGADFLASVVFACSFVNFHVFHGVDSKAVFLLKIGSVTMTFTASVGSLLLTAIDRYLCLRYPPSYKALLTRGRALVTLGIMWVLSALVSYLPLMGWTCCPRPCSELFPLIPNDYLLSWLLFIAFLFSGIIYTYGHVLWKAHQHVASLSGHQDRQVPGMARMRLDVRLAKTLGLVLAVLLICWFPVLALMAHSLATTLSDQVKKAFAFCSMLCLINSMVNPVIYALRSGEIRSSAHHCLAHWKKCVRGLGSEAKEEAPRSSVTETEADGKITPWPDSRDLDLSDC
protocol description: Cannabinoid CB2 receptor binding assay ([3H]-CP-55,940 displacement, SK-N-MC cell membranes)
run parameters: 1.5 h; test concentration of 0.2 μM; radioligand CP-55,940 0.2 nM; read-out: Cannabinoid CB2 Receptor Binding, percent inhibition
Experimental: Binding Assay for CB1 or CB2 Agonists or Inverse Agonists The human CB1 and CB2 receptors were stably expressed in SK-N-MC cells transfected with pcDNA3 CB-1 (human) or pcDNA3 CB-2 (human). […] On the day of the assay, the pellet was thawed on ice and diluted in assay buffer (50 mM Tris-HCl, 5 mM MgCl2, 2.5 mM EDTA, 0.5 mg/mL fatty acid free bovine serum albumin, pH 7.5). […] Non-specific binding was measured in wells containing W1N 55,212 (10 uM). […]
Rule: yes (1) for inhibition at 0.2 µM not less than 30%, no (0) for anything less.

// known answers, use as guide
molecular string	answer label
CCc1c(C(=O)N[C@@H](C)C2CCCCC2)nn(-c2ccc(Cl)cc2Cl)c1-c1ccc(Br)s1	yes (1)
Cc1ccc(-c2c(C)c(C(=O)NN3CCCCC3)nn2-c2ccc(Cl)cc2Cl)o1	no (0)
N#Cc1c(C(=O)NN2CCCCC2)nn(-c2ccc(Cl)cc2Cl)c1-c1cccs1	no (0)
Cc1c(C(=O)NN2CCC(O)CC2)nn(-c2ccc(Cl)cc2Cl)c1-c1ccc(Cl)s1	no (0)

Inquiry: Hi team, for Cc1ccc(-c2c(C)c(C(=O)N[C@@H](C)c3ccccc3)nn2-c2ccc(Cl)cc2Cl)o1 , is the recorded inhibition at 0.2 µM at or above 30%?
Reply text: yes (1)

Inquiry: Same read-out for CCc1c(C(=O)N[C@@H](C)c2ccccc2)nn(-c2ccc(Cl)cc2Cl)c1-c1ccc(Br)s1 ?
Reply text: yes (1)

Inquiry: What do we get for N#Cc1c(C(=O)N2CCCCC2)nn(-c2ccc(Cl)cc2Cl)c1-c1cccs1 ?
Reply text: no (0)

Inquiry: Queued: CCc1c(C(=O)NN2CCCCC2)nn(-c2ccc(Cl)cc2Cl)c1-c1ccc(Cl)s1
Reply text: no (0)

Reference source: patent US20070117858A1
